- System: Lamium purpureum (LAMPU)
- protocol description: Pre-emergence herbicidal evaluation, purple deadnettle
- Format: in vivo
- details: dose 0.025 kg/ha
Entries and their LAMPU rating values follow.
property measured: LAMPU rating

> print(dat)
                                    compound                     recorded.value
 1  COc1cc(OCC(F)(F)C(F)F)nc(Oc2cc(C(F)(F)F)nn2C)c1 [Example 4]  8 (8 - Approaching complete kill)
 2  Cc1cc(OC/C=C/C(F)(F)F)nc(Oc2cc(C(F)(F)F)nn2C)c1 [Example 1]              9 (9 - Complete kill)
 3  Cc1cc(OC=CCC(F)(F)F)nc(Oc2cc(C(F)(F)F)nn2C)c1 [Example 2]  8 (8 - Approaching complete kill)
 4  C=C(Cl)COc1cc(C)cc(Oc2cc(C(F)(F)F)nn2C)n1 [Example 36]     7 (7 - Good herbicidal effect)
 5  Cc1cc(OCC=C(Cl)Cl)nc(Oc2cc(C(F)(F)F)nn2C)c1 [Example 12]              9 (9 - Complete kill)
 6  CC(Cl)=CCOc1cc(C#N)cc(Oc2csc(C(F)(F)F)c2)n1 [Example 28]            5 (5 - Definite injury)
 7  Cc1cc(OCC(F)(F)C(F)(F)F)nc(Oc2cc(C(F)(F)F)nn2C)c1 [Example 7]          6 (6 - Herbicidal effect)
 8  Cc1cc(OCC(F)(F)C(F)(F)C(F)(F)C(F)F)nc(Oc2cc(C(F)(F)F)nn2C)c1 [Example 8]  8 (8 - Approaching complete kill)
 9  Cc1cc(OCC(F)(F)C(F)F)nc(Oc2cc(C(F)(F)F)nn2C)c1 [Example 6]     7 (7 - Good herbicidal effect)
10  CC(Cl)=CCOc1cc(C)cc(Oc2cc(C(F)(F)F)nn2C)n1 [Example 11]  8 (8 - Approaching complete kill)
